assay: survival rescue of mitochondrial mutant cells in low glucose, primary screen, MELAS cybrids, Rieske KO mouse fibroblasts, CellTiter-Glo (AID 1508586); details: Rieske KO mouse fibroblast survival, CellTiter-Glo 72 h; further: test concentration not given here
Our labelling divides records by z-score into ranges: Low: < -0.3; Mid: ≥ -0.3 and < 0.09; High: ≥ 0.09

Examples from the recorded data:
CCCCc1cc2ccccc2c(OCCN(C)C)n1
Mid
CCCCCCCCCCCCCCCC[N+](C)(C)CCN(Cc1ccc(OC)cc1)c1ncccn1
High
CC(=O)OCC(=O)[C@@]12N=C(C)O[C@@H]1C[C@H]1[C@@H]3CCC4=CC(=O)C=C[C@]4(C)[C@H]3[C@@H](O)C[C@@]12C
High
COc1cc2c(c(OC)c1OC)-c1ccc(OC)c(=O)cc1[C@@H](NC(C)=O)CC2
Mid
CC(CNC1CCCCC1)OC(=O)c1ccccc1 (centres undefined)
Low
CN(C)CCOC(c1ccccc1)c1ccccc1 (tested in a mixture with another compound)
High
COc1ccc(-c2cc(=O)c3c(OC)c(OC)c(OC)c(OC)c3o2)cc1
Mid
COc1ccc(C(Cl)=C(c2ccc(OC)cc2)c2ccc(OC)cc2)cc1
High

Query: The entry to classify is CNCCCC1c2ccccc2C=Cc2ccccc21 ; which class holds it?
Reply: Low

Query: The entry to classify is C=CCc1cc(OC)c(O)c(C(=O)NCCO)c1 ; which class holds it?
Reply: High

Query: The entry to classify is C[C@@H]1C[C@H]2[C@@H]3C[C@H](F)C4=CC(=O)C=C[C@]4(C)[C@@]3(F)[C@@H](O)C[C@]2(C)[C@@]1(O)C(=O)COC(=O)C(C)(C)C ; which class holds it?
Reply: High
